Data credit: ChEMBL document CHEMBL1649231

Examples of molecules with documented Activity follow.
# Test system: Staphylococcus hominis
# assayProtocol: Antimicrobial activity against methicillin-susceptible coagulase-negative Staphylococcus hominis assessed as intermediate resistant isolates after 24 hrs by broth microdilution method
# Assay type: functional
# cond: pooled result: one value given for 5 cell lines, strains, targets or settings
Please reply with the bare figure in % and do not write the unit itself.

CC[C@H]1OC(=O)[C@H](C)[C@@H](O[C@H]2C[C@@](C)(OC)[C@@H](O)[C@H](C)O2)[C@H](C)[C@@H](O[C@@H]2O[C@H](C)C[C@H](N(C)C)[C@H]2O)[C@](C)(O)C[C@@H](C)C(=O)[C@H](C)[C@@H](O)[C@]1(C)O
23
CN[C@H](CC(C)C)C(=O)N[C@H]1C(=O)N[C@@H](CC(N)=O)C(=O)N[C@H]2C(=O)N[C@H]3C(=O)N[C@H](C(=O)N[C@H](C(=O)O)c4cc(O)cc(O)c4-c4cc3ccc4O)[C@H](O)c3ccc(c(Cl)c3)Oc3cc2cc(c3O[C@@H]2O[C@H](CO)[C@@H](O)[C@H](O)[C@H]2O[C@H]2C[C@](C)(N)[C@H](O)[C@H](C)O2)Oc2ccc(cc2Cl)[C@H]1O
0
C[C@H]1COc2c(N3CCN(C)CC3)c(F)cc3c(=O)c(C(=O)O)cn1c23.C[C@H]1COc2c(N3CCN(C)CC3)c(F)cc3c(=O)c(C(=O)O)cn1c23.O
0

Req: Request body: readout Activity, system Staphylococcus hominis, query CN(C)[C@@H]1C(O)=C(C(N)=O)C(=O)[C@@]2(O)C(O)=C3C(=O)c4c(O)cccc4[C@@](C)(O)[C@H]3C[C@@H]12 . Return the value.
Resp: 19

---

# Test system: Staphylococcus simulans
# assayProtocol: Antimicrobial activity against methicillin-susceptible coagulase-negative Staphylococcus simulans after 24 hrs by broth microdilution method
# Type: functional
Examples of compounds with documented MIC follow.
Please reply with the bare figure in µg/mL and do not write the unit itself.

Examples with answers:
CC[C@H]1OC(=O)[C@H](C)[C@@H](O[C@H]2C[C@@](C)(OC)[C@@H](O)[C@H](C)O2)[C@H](C)[C@@H](O[C@@H]2O[C@H](C)C[C@H](N(C)C)[C@H]2O)[C@](C)(O)C[C@@H](C)C(=O)[C@H](C)[C@@H](O)[C@]1(C)O [ERYTHROMYCIN]
0.5
CN(C)[C@@H]1C(O)=C(C(N)=O)C(=O)[C@@]2(O)C(O)=C3C(=O)c4c(O)cccc4[C@@](C)(O)[C@H]3C[C@@H]12 [TETRACYCLINE]
0.5
C[C@H]1COc2c(N3CCN(C)CC3)c(F)cc3c(=O)c(C(=O)O)cn1c23.C[C@H]1COc2c(N3CCN(C)CC3)c(F)cc3c(=O)c(C(=O)O)cn1c23.O [LEVOFLOXACIN]
0.25

For the next question, use this compound.
Req: Consider the compound Cc1onc(-c2ccccc2)c1C(=O)N[C@@H]1C(=O)N2[C@@H]1SC(C)(C)[C@@H]2C(=O)O [OXACILLIN] and give its measured MIC.
Resp: 0.125

---

# System: Staphylococcus hominis
# assayProtocol: Antimicrobial activity against methicillin-susceptible coagulase-negative Staphylococcus hominis assessed as resistant isolates after 24 hrs by broth microdilution method
# Format: functional
Binary call on Activity: MET from 10% upward, NOT MET beneath that.

CN[C@H](CC(C)C)C(=O)N[C@H]1C(=O)N[C@@H](CC(N)=O)C(=O)N[C@H]2C(=O)N[C@H]3C(=O)N[C@H](C(=O)N[C@H](C(=O)O)c4cc(O)cc(O)c4-c4cc3ccc4O)[C@H](O)c3ccc(c(Cl)c3)Oc3cc2cc(c3O[C@@H]2O[C@H](CO)[C@@H](O)[C@H](O)[C@H]2O[C@H]2C[C@](C)(N)[C@H](O)[C@H](C)O2)Oc2ccc(cc2Cl)[C@H]1O
NOT MET
C[C@H]1COc2c(N3CCN(C)CC3)c(F)cc3c(=O)c(C(=O)O)cn1c23.C[C@H]1COc2c(N3CCN(C)CC3)c(F)cc3c(=O)c(C(=O)O)cn1c23.O
NOT MET

Req: Record CN(C)[C@@H]1C(O)=C(C(N)=O)C(=O)[C@@]2(O)C(O)=C3C(=O)c4c(O)cccc4[C@@](C)(O)[C@H]3C[C@@H]12 ; criterion: Activity no lower than 10%. Met?
Resp: MET

Req: Thanks! And CC[C@H]1OC(=O)[C@H](C)[C@@H](O[C@H]2C[C@@](C)(OC)[C@@H](O)[C@H](C)O2)[C@H](C)[C@@H](O[C@@H]2O[C@H](C)C[C@H](N(C)C)[C@H]2O)[C@](C)(O)C[C@@H](C)C(=O)[C@H](C)[C@@H](O)[C@]1(C)O ?
Resp: MET

Req: Thanks! And CC1(C)S[C@@H]2[C@H](NC(=O)[C@H](N)c3ccccc3)C(=O)N2[C@H]1C(=O)O ?
Resp: MET

Req: Thanks! And Cc1onc(-c2ccccc2)c1C(=O)N[C@@H]1C(=O)N2[C@@H]1SC(C)(C)[C@@H]2C(=O)O ?
Resp: NOT MET

---

# System: Staphylococcus hominis
# assayProtocol: Antimicrobial activity against methicillin-resistant coagulase-negative Staphylococcus hominis after 24 hrs by broth microdilution method
# Assay type: functional
Examples of molecules with documented MIC90 follow.
Please reply with the bare figure in µg/mL and do not write the unit itself.

Examples with answers:
C[C@H]1COc2c(N3CCN(C)CC3)c(F)cc3c(=O)c(C(=O)O)cn1c23.C[C@H]1COc2c(N3CCN(C)CC3)c(F)cc3c(=O)c(C(=O)O)cn1c23.O
4
CC[C@H]1OC(=O)[C@H](C)[C@@H](O[C@H]2C[C@@](C)(OC)[C@@H](O)[C@H](C)O2)[C@H](C)[C@@H](O[C@@H]2O[C@H](C)C[C@H](N(C)C)[C@H]2O)[C@](C)(O)C[C@@H](C)C(=O)[C@H](C)[C@@H](O)[C@]1(C)O
32

For the next question, use this molecule.
Req: Consider the molecule CN(C)[C@@H]1C(O)=C(C(N)=O)C(=O)[C@@]2(O)C(O)=C3C(=O)c4c(O)cccc4[C@@](C)(O)[C@H]3C[C@@H]12 and give its measured MIC90.
Resp: 64

---

# Tested on: Staphylococcus epidermidis
# assayProtocol: Bactericidal activity against methicillin-susceptible coagulase-negative Staphylococcus epidermidis after 24 hrs by plate counting method
# Assay type: functional
# cond: Staphylococcus epidermidis, 24 h
// returns 0 unless MBC is strictly below 0.2 µg/mL, in which case 1

Record excerpt, results attached:
C[C@H]1COc2c(N3CCN(C)CC3)c(F)cc3c(=O)c(C(=O)O)cn1c23.C[C@H]1COc2c(N3CCN(C)CC3)c(F)cc3c(=O)c(C(=O)O)cn1c23.O
0
CC(=O)NC[C@H]1CN(c2ccc(N3CCOCC3)c(F)c2)C(=O)O1
0
Cc1onc(-c2ccccc2)c1C(=O)N[C@@H]1C(=O)N2[C@@H]1SC(C)(C)[C@@H]2C(=O)O
0
CN[C@H](CC(C)C)C(=O)N[C@H]1C(=O)N[C@@H](CC(N)=O)C(=O)N[C@H]2C(=O)N[C@H]3C(=O)N[C@H](C(=O)N[C@H](C(=O)O)c4cc(O)cc(O)c4-c4cc3ccc4O)[C@H](O)c3ccc(c(Cl)c3)Oc3cc2cc(c3O[C@@H]2O[C@H](CO)[C@@H](O)[C@H](O)[C@H]2O[C@H]2C[C@](C)(N)[C@H](O)[C@H](C)O2)Oc2ccc(cc2Cl)[C@H]1O
1
CN(C)[C@@H]1C(O)=C(C(N)=O)C(=O)[C@@]2(O)C(O)=C3C(=O)c4c(O)cccc4[C@@](C)(O)[C@H]3C[C@@H]12
0

Req: Dear reviewer, please state whether CC[C@H]1OC(=O)[C@H](C)[C@@H](O[C@H]2C[C@@](C)(OC)[C@@H](O)[C@H](C)O2)[C@H](C)[C@@H](O[C@@H]2O[C@H](C)C[C@H](N(C)C)[C@H]2O)[C@](C)(O)C[C@@H](C)C(=O)[C@H](C)[C@@H](O)[C@]1(C)O has MBC strictly beneath 0.2 µg/mL.
Resp: 0

Req: Thanks! And Cc1ccc(C(C)C)c(O)c1 ?
Resp: 0

Req: Thanks! And CC1(C)S[C@@H]2[C@H](NC(=O)[C@H](N)c3ccccc3)C(=O)N2[C@H]1C(=O)O ?
Resp: 0

Req: Thanks! And COc1cc(O)c(C(=O)[C@@H]2[C@H](CC=C(C)C)C(C)=CC[C@H]2c2ccccc2)c(O)c1 ?
Resp: 1

---

Examples of molecules with documented Activity follow.
# Test system: Staphylococcus simulans
# assayProtocol: Antimicrobial activity against methicillin-resistant coagulase-negative Staphylococcus simulans assessed as resistant isolates after 24 hrs by broth microdilution method
# Type: functional
Please reply with the bare figure in % and do not write the unit itself.

CN[C@H](CC(C)C)C(=O)N[C@H]1C(=O)N[C@@H](CC(N)=O)C(=O)N[C@H]2C(=O)N[C@H]3C(=O)N[C@H](C(=O)N[C@H](C(=O)O)c4cc(O)cc(O)c4-c4cc3ccc4O)[C@H](O)c3ccc(c(Cl)c3)Oc3cc2cc(c3O[C@@H]2O[C@H](CO)[C@@H](O)[C@H](O)[C@H]2O[C@H]2C[C@](C)(N)[C@H](O)[C@H](C)O2)Oc2ccc(cc2Cl)[C@H]1O
0
CC[C@H]1OC(=O)[C@H](C)[C@@H](O[C@H]2C[C@@](C)(OC)[C@@H](O)[C@H](C)O2)[C@H](C)[C@@H](O[C@@H]2O[C@H](C)C[C@H](N(C)C)[C@H]2O)[C@](C)(O)C[C@@H](C)C(=O)[C@H](C)[C@@H](O)[C@]1(C)O
74
CC1(C)S[C@@H]2[C@H](NC(=O)[C@H](N)c3ccccc3)C(=O)N2[C@H]1C(=O)O
100
CN(C)[C@@H]1C(O)=C(C(N)=O)C(=O)[C@@]2(O)C(O)=C3C(=O)c4c(O)cccc4[C@@](C)(O)[C@H]3C[C@@H]12
75
C[C@H]1COc2c(N3CCN(C)CC3)c(F)cc3c(=O)c(C(=O)O)cn1c23.C[C@H]1COc2c(N3CCN(C)CC3)c(F)cc3c(=O)c(C(=O)O)cn1c23.O
59

For the next question, use this molecule.
Req: Consider the molecule Cc1onc(-c2ccccc2)c1C(=O)N[C@@H]1C(=O)N2[C@@H]1SC(C)(C)[C@@H]2C(=O)O and give its measured Activity.
Resp: 74
